- Run description: soluble on expression in E. coli; label from the status in PepcDB or PDB records
Measurement label: soluble on expression in E. coli

MSNYVIQADQQLLDALRAHYEGALSDRLPAGALFAVKRPDVVITAYRSGKVLFQGKAAEQEAAKWISGASASNETADHQPSALAAHQLGSLSAIGSDEVGTGDYFGPIVVAAAYVDRPHIAKIAALGVKDSKQLNDEAIKRIAPAIMETVPHAVTVLDNPQYNRWQRSGMPQTKMKALLHNRTLVKLVDAIAPAEPEAIIIDEFLKRDSYFRYLSDEDRIIRERVHCLPKAESVHVSVAAASIIARYVFLEEMEQLSRAVGLLLPKGAGAIVDEAAARIIRARGEEMLETCAKLHFANTKKALAIAKRRK = soluble
MDNKIVYVVSDSVGETADLVVRAAMGQFPFAPDIRRVPYVEDTGTLKEVISIAKSNQALICFTLVKPDMRQYLVTEAAKEGVEAYDIIGPLIDQIEEITGQVPRYEPGVVRRLDEEYFKKIEAIEFAVKYDDGRDARGILKADIVLIGVSRTSKTPLSQYLAHNKRLKVANVPLVPEVDPPEELYQVAKEKCFGLKITPDKLNHIRKERLKSLGLSDGATYANINRIQEEIDHFEEVISRINCQVIDVSNKAIEETANIIVNAVQNQKMF = not soluble
MLIAITGTPGVGKTTVAKLLAKKLNYEYVSLKDFALEKGCGRRVNDEVEVEIDELAYFIERELKGKNAVLDGHLSHLMPVDLVVVLRAHPKLIGERLRERGYDREKIGENVEAELVDAVLIEAIEEHENVIEVDTTNKSPEDVVEEIVSLINSGIKKRVGIVDWSEVYDEIIPYLRLGGELEHHHHHH = soluble
MSKAGASLATCYGPVSADVMAKAENIRLLILDVDGVLSDGLIYMGNNGEELKAFNVRDGYGIRCALTSDIEVAIITGRKAKLVEDRCATLGITHLYQGQSNKLIAFSDLLEKLAIAPENVAYVGDDLIDWPVMEKVGLSVAVADAHPLLIPRADYVTRIAGGRGAVREVCDLLLLAQGKLDEAKGQSI = soluble

Recorded soluble on expression in E. coli for MGKLYVFDHPLIQHKITYIRDKNTGTKDFRELVDEVASLMAFEITRDLPLKDIEIETPVSKATTKVIAGKKLGLIPILRAGLGMVDGILKLIPAAKVGHVGLYRDPKTLQPVEYYVKLPTDVEERDFIVLDPMLATGGSAAEAINSLKKRGAKQIKLMCIVAAPEGVKVVQEEHPDVDIYVAALDEKLNDHGYVVPGLGDAGDRLFGTK , please?
not soluble

Next up: MGHHHHHHSHMRLLKSELGSFITDYFQNQLLAKGLFFVEEKIKLCEGENRIEVLAEVWDHFFTETLPTLQAIFYPVQSVHEPTGPSESYLQLEELVKQVVSPFLGISGDRSFSGPTYTLARRHSRVRPKVTVLNYASPITAVSRPLNEMVLTPLTEQEGEAYLEKCGSVRRHTVANAHSDIQLLAMATMMHSGLGEEASSENKCLLLPPSFPPPHRQCSSEPNITDNPDGLEEGARGSQEGSELNCASLS
not soluble
